Overview of reported %Inh across a group of compounds:
# System: ROCK1
# ASSAY CONTEXT: concentration: 1 μM, replicates: in singlicate; n = 1;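 further: KINOMEscan kinase panel screen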
EXPERIMENTAL ENDPOINT: %Inh (%)

>>> print(df.to_string())
                                    compound  result_number
 0  CCC(=O)c1c(-c2ccccc2)c2cc(Cl)ccc2c(=O)n1Cc1cc(S(C)(=O)=O)n(CC(N)=O)n1              0
 1  CN1C(=O)C(Nc2ccccc2)=C(c2ccccc2)C1=O [SB-300079]              7
 2  Cc1nnc(-c2ccc(C)c(-c3ccc(C(=O)O)cc3)c2)o1 [GW608005]              0
 3  Cc1cccc(-c2cc(-c3c[nH]nc3-c3ccccn3)ccn2)c1 [GW679395]              0
 4  Cc1ccc(Oc2ccc(Nc3ncnc4cc[nH]c34)cc2C)cn1              0
 5  Cc1ccc(-c2ccc3c(ccc4sc5c(c43)NC[C@@H](C)N=C5N(C)C)n2)cn1              0
 6  CN1C(=O)C(Nc2cc(Cl)c(O)c(Cl)c2)=C(c2ccc(Cl)cc2)C1=O [SB-404321]              6
 7  COc1cc2nccc(Nc3ccc(OCc4ccc(NC(C)=O)cc4)cc3)c2cc1OC.Cl [GW440135]             13
 8  CC(C)(C)c1ccc(C(=O)Nc2cn3cc(-c4ccccc4)ccc3n2)cc1              0
 9  O=C(Nc1n[nH]c2cc(-c3ccccc3F)ccc12)C1CC1 [SB-733371]              0
10  COc1cccc(C2=C(N(C)c3ccccc3)C(=O)NC2=O)c1 [SB-334865]              0
11  O=C(Nc1n[nH]c2nc(-c3ccccc3)c(Cl)cc12)C1CC1 [SB-734909]             24
12    Fc1cccc(CSc2nnc(-c3ccc4c(c3)CCO4)o2)c1             12
13      Nc1ncnc2c1ncn2-c1ccc(Cl)cc1 [AH2635]             30
14    Nc1ncnc2c1ncn2-c1cccc(F)c1 [SKF-97560]             38
15  COc1ccc(Nc2nccc(N3CCC(NS(=O)(=O)c4ccc(NC(C)=O)cc4)C3)n2)cc1 (stereo not shown) [GSK1379729]             36
16  COc1cc2ncn(-c3cc(OCc4ccncc4Br)c(C(N)=O)s3)c2cc1OC [GW854278]             11
17  COc1ccc(-c2cc3c(C)nc(N)nc3n([C@H]3CC[C@H](O)CC3)c2=O)cn1              0
18  Nc1nccc2scc(-c3ccc4c(c3)CCN4C(=O)Cc3ccccc3)c12 [GSK2576924]              0

====

# Test system: CSNK1G1
# ASSAY CONTEXT: concentration: 1 μM, replicates: in singlicate; n = 1
EXPERIMENTAL ENDPOINT: %Inh (%)

>>> print(df.to_string())
                                smiles_code  result_number
0    Fc1cccc(CSc2nnc(-c3ccc4c(c3)CCO4)o2)c1             15
1  CCC(=O)c1c(-c2ccccc2)c2cc(Cl)ccc2c(=O)n1Cc1cc(C(=O)NC2CC2)n(C)n1              0
2  COc1cccc(C2=C(N(C)c3ccccc3)C(=O)NC2=O)c1              1
3  CCc1ccc(-c2ccc3c(c2)-c2nn(C)cc2S(=O)(=O)N3C)cc1              0
4  COc1ccc(-c2cc3c(C)nc(N)nc3n([C@H]3CC[C@H](OCCO)CC3)c2=O)cn1              0
5  Cc1cc(Nc2nc(-c3cccc(C)n3)nc3ccccc23)ccn1              3
6  COc1cc2ncn(-c3cc(OCc4ccncc4Br)c(C(N)=O)s3)c2cc1OC             18
7   O=C(Nc1n[nH]c2cc(-c3ccccc3F)ccc12)C1CC1              0
8  CCC(=O)c1c(-c2ccccc2)c2cc(Cl)ccc2c(=O)n1Cc1ccc(C(=O)O)cc1              0

====

# Test system: PIP5K2B
# ASSAY CONTEXT: concentration: 1 μM, replicates: in singlicate; n = 1
EXPERIMENTAL ENDPOINT: %Inh (%)

                                   compound  result_number
0  O=C(Nc1n[nH]c2nc(-c3ccccc3)c(Cl)cc12)C1CC1 [SB-734909]             13
1  CCCC(=O)Nc1n[nH]c2ncc(-c3cccc4ccccc34)cc12 [SB-642057]              0
2      Nc1ncnc2c1ncn2-c1ccc(Cl)cc1 [AH2635]             10

====

# Tested on: WNK3
# ASSAY CONTEXT: concentration: 1 μM, replicates: in singlicate; n = 1
EXPERIMENTAL ENDPOINT: %Inh (%)

>>> df
                                    compound  result_number
 0  COc1cc(Nc2ccnc3ccc(C(F)(F)F)cc23)cc(OC)c1OC             27
 1  CCC(=O)c1c(-c2ccccc2)c2cc(Cl)ccc2c(=O)n1Cc1ccc(C(=O)O)cc1              0
 2  COc1cc2nccc(Nc3ccc(OCc4ccc(NC(C)=O)cc4)cc3)c2cc1OC.Cl             39
 3  COc1ccc(-c2coc3ccc(-c4nnc(SCc5cccc(C#N)c5)o4)cc23)cc1              0
 4    Fc1cccc(CSc2nnc(-c3ccc4c(c3)CCO4)o2)c1              0
 5    CN(C)c1cc(-c2ccc3c(N)n[nH]c3c2)nc(N)n1             15
 6                CCn1c(-c2nonc2N)nc2ccccc21              0
 7  Nc1nccc2scc(-c3ccc4c(c3)CCN4C(=O)Cc3ccccc3)c12             27
 8             COc1ccc(-n2cnc3c(N)ncnc32)cc1              0
 9  Cc1nc(N(C)[C@H]2CN(C(=O)CC#N)CC[C@H]2C)c2cc[nH]c2n1              0
10  Cc1cccc(-c2cc(-c3c[nH]nc3-c3ccccn3)ccn2)c1             36
11  CC(C)(C)c1ccc(C(=O)Nc2cn3cc(-c4ccccc4)ccc3n2)cc1              0
12  COc1cc(Nc2nccc(N3CCC(NC(=O)C(C)c4ccc(Cl)cc4)C3)n2)cc(OC)c1OC (centres unmarked)             15
13  C[C@@H]1CC[C@H](C(=O)NC2CCCCC2)CN1c1cc(-c2ccc3c(N)n[nH]c3c2)nc(N)n1             21
14  CN1C(=O)C(Nc2cc(Cl)c(O)c(Cl)c2)=C(c2ccc(Cl)cc2)C1=O              0
15  CCc1ccc(-c2ccc3c(c2)-c2nn(C)cc2S(=O)(=O)N3C)cc1              0
16     Nc1nc(-c2ccccc2F)c(-c2ccnc3ccccc23)s1             35
17             Nc1ncnc2c1ncn2-c1cccc2ccccc12             29
18  COc1cc2ncn(-c3cc(OCc4ccc(S(C)(=O)=O)cc4)c(C(N)=O)s3)c2cc1OC              0
19  COc1ccc(Nc2nccc(N3CCC(NS(=O)(=O)c4ccc(NC(C)=O)cc4)C3)n2)cc1 (centres unmarked)              0

====

# Tested on: SIK
# ASSAY CONTEXT: concentration: 1 μM, replicates: in singlicate; n = 1
In this section we review reported %Inh values for a set of molecules.
EXPERIMENTAL ENDPOINT: %Inh (%)

                                   molecule  experimental_endpoint  unit_label  result_number
0  CN1C(=O)C(Nc2cc(Cl)c(O)c(Cl)c2)=C(c2ccc(Cl)cc2)C1=O [SB-404321]                   %Inh           %              0
1  O=C(Nc1ccc2c(c1)OCO2)NC1CCN(c2ccnc(NCc3ccc(F)cc3)n2)CC1 [GSK1379859]                   %Inh           %              0
2  COc1cc(OC)cc(-c2cc3cnc(N)nc3nc2NC(=O)NC(C)(C)C)c1                   %Inh           %              6
3  Cc1cccc(-c2cc(-c3c[nH]nc3-c3ccccn3)ccn2)c1 [GW679395]                   %Inh           %              0
4  COC(=O)c1c(-c2ccccc2)c2cc(C)ccc2c(=O)n1Cc1ccccc1                   %Inh           %              3
5      Nc1ncnc2c1ncn2-c1ccc(Cl)cc1 [AH2635]                   %Inh           %              3
6  O=c1cc(N2CCOCC2)nc2n(Cc3ccc(F)c(Cl)c3)ccn12 [GSK2297099]                   %Inh           %              0
7  C[C@@H]1CC[C@H](C(=O)NC2CCCCC2)CN1c1cc(-c2ccc3c(N)n[nH]c3c2)nc(N)n1 [GSK2291363]                   %Inh           %             29
